pKi: −log10 of the molar value.
Histamine H3 receptor (Homo sapiens, UniProt Q9Y5N1) data, read-out pKi
Sequence (Q9Y5N1 whole entry): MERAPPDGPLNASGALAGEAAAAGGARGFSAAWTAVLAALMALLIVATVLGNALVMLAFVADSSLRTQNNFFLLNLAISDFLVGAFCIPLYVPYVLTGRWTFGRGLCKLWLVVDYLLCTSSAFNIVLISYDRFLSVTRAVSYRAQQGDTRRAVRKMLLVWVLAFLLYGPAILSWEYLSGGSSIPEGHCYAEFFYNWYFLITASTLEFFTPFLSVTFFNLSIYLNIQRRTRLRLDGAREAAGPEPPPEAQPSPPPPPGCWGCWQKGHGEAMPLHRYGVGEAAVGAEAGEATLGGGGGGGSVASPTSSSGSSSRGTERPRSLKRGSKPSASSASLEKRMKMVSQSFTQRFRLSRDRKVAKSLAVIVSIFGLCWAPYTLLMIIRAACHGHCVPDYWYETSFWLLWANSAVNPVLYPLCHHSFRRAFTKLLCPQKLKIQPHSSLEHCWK

| QUERY SMILES | TARGET OF ASSAY | pKi |
| --- | --- | --- |
| N#Cc1c2ccccc2cn1CCCN1CCCCC1 | Histamine H3 receptor (Homo sapiens, UniProt Q9Y5N1) | 6.45 |
| N#Cc1c2ccccc2cn1CCCCCN1CCCCC1 | Histamine H3 receptor (Homo sapiens, UniProt Q9Y5N1) | 7.51 |
| O=[N+]([O-])c1ccc(NCCCCN2CCCCC2)c2nonc12 | Histamine H3 receptor (Homo sapiens, UniProt Q9Y5N1) | 6.77 |
| O=[N+]([O-])c1ccc(NCCCCCN2CCCCC2)c2nonc12 | Histamine H3 receptor (Homo sapiens, UniProt Q9Y5N1) | 7.96 |
